- Protocol notes: viability gain of MRP-1-high H69AR cells under doxorubicin, pilot screen, MRP-1 activator project, CellTiter-Glo, duplicate (AID 807);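 note: compound pretreatment 18-22 h then 72 h combined with doxorubicin; 0% = doxorubicin alone and 100% = vehicle without doxorubicin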
- Particulars: H69AR viability with doxorubicin, CellTiter-Glo luminescence; at 10 µM; active compounds read high
Readout: viability increase (%)
# unit: % | format: bare number

Would you please look over these solved cases?
{"columns": ["Molecule", "Assay result"],
 "data": [
  ["Cc1cc(N2C(=O)C3CC=CCC3C2=O)cc(C)c1Br (stereo not drawn)", -1.05],
  ["O=C(Cc1cc(=O)[nH]c(=O)[nH]1)N1CCN(C(=O)c2ccco2)CC1", -2.96],
  ["CC(=O)NCCc1cc2ccc(C)c(C)c2[nH]c1=O", -1.53]
]}

Q: Return reported viability increase; argument: CCc1ccccc1NC1c2ccccc2C(=O)N1c1cc(C)ccn1 (stereo not drawn)
A: -1.63

Q: Return reported viability increase; argument: Cc1ccc(C(=O)CC2(O)C(=O)N(C)c3ccccc32)o1 (stereo not drawn)
A: -2.33

Q: Return reported viability increase; argument: COC(=O)c1cc(NC(=O)c2nccnc2C(=O)O)cc(C(=O)OC)c1
A: -1.21

Q: Return reported viability increase; argument: CC(C)c1ccc2c(c1)C(=O)NC(C)(C)C2
A: -2.07

====

- Protocol notes: RAM signaling pathway blockade in yeast – S. cerevisiae, Pdr1DBD-CYC8 efflux-inhibited sensitized strain, primary screen (AID 1298);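 note: 0% = DMSO untreated cells without growth and 100% = 10 µM 1-NA-PP1 full growth; higher means more yeast growth rescued from 5-FOA killing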
- Particulars: S. cerevisiae cbk1-as DSE1-URA3 strain, 5-FOA growth OD615, 2 d; at 50 µM; active compounds read high
Readout: RAM network inhibition (%)
# unit: % | format: bare number

Would you please look over these solved cases?
{"columns": ["Compound", "Units text", "RAM network inhibition"],
 "data": [
  ["COc1ccccc1CNC(=O)c1ccc(CNc2c(N3CCCC3)c(=O)c2=O)cc1", "%", 2.8],
  ["COc1cccc(CNC(=O)c2ccc(NC(=O)C3CCCO3)cc2)c1 (stereo not drawn)", "%", 7.03],
  ["COCCCNc1ncnc2nc[nH]c12", "%", 1.74],
  ["Cn1c(CSc2nc3ccccc3s2)n[nH]c1=S", "%", 0.95],
  ["CN(c1ccccc1)S(=O)(=O)c1cccc(C(=O)N2CCN(c3ccccn3)CC2)c1", "%", -1.92],
  ["Cn1c(SCCSc2nnc(-c3ccccc3)n2C)nnc1-c1ccccc1", "%", 5.17],
  ["COc1ccc(OC)c(NC(=O)CNC(=O)Cn2ccc3ccccc3c2=O)c1", "%", -0.05],
  ["COc1ccc(NC(=O)CN(c2cc(C)cc(C)c2)S(=O)(=O)c2c(C)noc2C)cc1", "%", 2.39]
]}

Q: Return reported RAM network inhibition; argument: CCOC(=O)CSC1=C(C#N)C(c2ccc(C)s2)CC(=O)N1 (stereo not drawn)
A: 0.22

Q: Return reported RAM network inhibition; argument: CC(=O)c1ccc2c3c(ccc(O)c13)CC2
A: 5.46

Q: Return reported RAM network inhibition; argument: COc1ccccc1NC=C1C(=O)OC(C)(C)OC1=O
A: 2.48

Q: Return reported RAM network inhibition; argument: Cn1c(Cn2c(=O)sc3ccccc32)nnc1SCc1cccc(F)c1
A: 7.87

Q: Return reported RAM network inhibition; argument: CCCCN=C(C)c1c(O)c2ccccc2oc1=O
A: -2

Q: Return reported RAM network inhibition; argument: O=C(CN1CC(c2ccccc2)CC1=O)Nc1ccc2c(c1)OCO2 (stereo not drawn)
A: 1.31

Q: Return reported RAM network inhibition; argument: COc1ccc(N2CCN(Cc3nc4c(c(=O)[nH]c(=O)n4C)n3Cc3cccc(Cl)c3)CC2)cc1
A: 1.83

Q: Return reported RAM network inhibition; argument: CC(=O)NC(CCS(C)(=O)=O)C(=O)Nc1cc(Cl)ccc1Cl (stereo not drawn)
A: 2.67

Data provenance: PubChem BioAssay
